Tested on: 7G8
Assay: qHTS profiling for inhibitors of Plasmodium falciparum proliferation (AID 504749); further: nearly all actives have a fitted effect of over 60% in size; further: potency means the concentration at half of the fitted maximal effect
Conditions: P. falciparum in erythrocytes, SYBR Green DNA, 72 h; series mostly up to 28.7 µM
Experimental: NIH National Institute of Allergy and Infectious Diseases [NIAID] NIH Chemical Genomics Center [NCGC] […] Because mature erythrocytes lack DNA, only Plasmodium-derived DNA is detected. NCGC Assay Protocol Summary: The SYBR Green viability assay was adapted from a method described previously (Plouffe et al., 2008). […] The following morning, fluorescence intensity at 485(14) nm excitation and 535(25) nm emission wavelengths was measured on an EnVision (Perkin Elmer) plate reader. […]
Inconclusive results are not listed. The source made the active and inactive calls. The call rests on the fitted dose curve; in most records, active means well fitted inhibition curve with a large enough effect; inconclusive means small, poorly fitted or top-dose-only effect; inactive means flat fitted curve, though single readings scatter. Numbered stars: 1 amine (or outer) side, 2 acyl side, 3 side chain; on linkers, the order of the positions; unused ones are H or OH. Bridge positions count the residues as written; N and C are the ends. Square brackets hold non-standard residues; d marks the D form. Peptide text beside a SMILES is read from it. I, II: the chains in the order shown. Actinocin(9to1) = Cc1c2oc3c(C)ccc(C(=O)[*:1])c3nc-2c(C(=O)[*:2])c(N)c1=O; NMeV = CN[C@H](C(=O)O)C(C)C; Sar = CNCC(=O)O
assay-readout: Potency

Record excerpt, results attached:
Nc1ccc(C(=O)O)cc1; inactive
COc1c(C)c2c(c(O)c1C/C=C(\C)CCC(=O)O)C(=O)OC2; 2.51 µM (active)
CCn1cc(C(=O)O)c(=O)c2cnc(N3CCCC3)nc21; inactive
Cc1c(N(C)CS(=O)(=O)O)c(=O)n(-c2ccccc2)n1C; inactive
CC(O)(P(=O)(O)O)P(=O)(O)O; inactive

Write down Potency measured for item CCOC(=O)COc1ccc2c(C)c(CCN(CC)CC)c(=O)oc2c1Cl
inactive

Write down Potency measured for item Cc1c2oc3c(C)ccc(C(=O)N[C@@H]4C(=O)N[C@H](C(C)C)C(=O)N5CCC[C@H]5C(=O)N(C)CC(=O)N(C)[C@@H](C(C)C)C(=O)O[C@@H]4C)c3nc-2c(C(=O)N[C@@H]2C(=O)N[C@H](C(C)C)C(=O)N3CCC[C@H]3C(=O)N(C)CC(=O)N(C)[C@@H](C(C)C)C(=O)O[C@@H]2C)c(N)c1=O (I: T[dV]P[Sar][NMeV] / II: T[dV]P[Sar][NMeV]; ester I:1-I:C, II:1-II:C; linker I:N-II:N via Actinocin(9to1))
0.0013 µM (active)

Data origin: PubChem BioAssay (NCATS)
